# measured.on: Ubiquitin-conjugating enzyme E2 N (Homo sapiens)
# assay.summary: inhibition of Ubc13-driven ubiquitin chain assembly – biochemical, TR-FRET, Uev1a, selectivity assay, SAR follow-up (AID 2658)
# particulars: Ubc13/Uev1a polyubiquitination, in vitro
Active and inactive are the calls of the source. No rule for the calls is given here.
Classes to choose from: true (1) = active, false (0) = inactive

Example entries and their recorded answers appear below.
1) CC(NC(=O)COC(=O)c1cc(-c2ccco2)nc2ccccc12)c1ccc(F)cc1 (configuration not stated)	true (1)
2) Cc1ccc(S(=O)(=O)N(C)C)cc1NC(=O)c1cc(-c2ccco2)nc2ccccc12	false (0)
3) Cc1ccsc1C=Nc1ccc(F)cc1	false (0)
4) S=c1[nH]nc(-c2cc(-c3ccccc3)n[nH]2)n1N=Cc1ccc(Cl)c(Cl)c1	false (0)
5) Cc1ccc(O)c(N=Cc2ccc(C)s2)c1	false (0)

*Q* // return assay outcome for CCCCn1c(NC(=O)c2ccc(Br)o2)c(S(=O)(=O)c2ccccc2)c2nc3ccccc3nc21
*A* false (0)

*Q* Dear all, I need the recorded test outcome for COc1ccc(CNC(=O)C(C)OC(=O)c2cc(-c3ccco3)nc3ccccc23)cc1 (configuration not stated) , thank you.
*A* true (1)
